Target: GABAA receptor α5β3γ2s (α5) (Homo sapiens, UniProt P18507+P28472+P31644)
Construct: Human GABAA receptor alpha 5 subunit amino acid; Human GABAA receptor beta 3 variant 1 subunit amino acid; Human GABAA receptor gamma 2 variant 1 (short) subunit amino acid; expressed in transfected cells
Sequence (P31644 32-462): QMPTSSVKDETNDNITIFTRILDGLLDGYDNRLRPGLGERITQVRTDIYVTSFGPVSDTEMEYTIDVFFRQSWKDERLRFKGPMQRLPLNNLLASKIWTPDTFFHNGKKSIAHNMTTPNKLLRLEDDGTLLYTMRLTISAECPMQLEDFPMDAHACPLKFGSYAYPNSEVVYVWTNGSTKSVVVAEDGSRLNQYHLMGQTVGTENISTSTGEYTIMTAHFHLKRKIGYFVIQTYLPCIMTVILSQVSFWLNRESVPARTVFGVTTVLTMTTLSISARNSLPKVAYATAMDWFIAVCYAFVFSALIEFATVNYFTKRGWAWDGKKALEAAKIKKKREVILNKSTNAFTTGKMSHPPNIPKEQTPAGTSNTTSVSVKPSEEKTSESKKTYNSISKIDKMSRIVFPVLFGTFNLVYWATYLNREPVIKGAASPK
Sequence (P28472 26-473): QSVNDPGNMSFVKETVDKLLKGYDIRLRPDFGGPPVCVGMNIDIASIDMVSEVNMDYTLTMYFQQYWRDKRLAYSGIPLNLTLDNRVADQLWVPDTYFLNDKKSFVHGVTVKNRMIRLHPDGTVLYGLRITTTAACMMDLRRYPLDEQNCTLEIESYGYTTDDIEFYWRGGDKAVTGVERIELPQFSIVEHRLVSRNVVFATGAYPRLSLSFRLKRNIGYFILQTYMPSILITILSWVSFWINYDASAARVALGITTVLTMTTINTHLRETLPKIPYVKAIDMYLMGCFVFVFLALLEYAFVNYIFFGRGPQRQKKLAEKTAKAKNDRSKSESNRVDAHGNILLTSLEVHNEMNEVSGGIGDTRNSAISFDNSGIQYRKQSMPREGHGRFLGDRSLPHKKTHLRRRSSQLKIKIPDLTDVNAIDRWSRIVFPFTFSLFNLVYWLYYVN
Sequence (P18507 40-467 isoform P18507-1 limits assumed): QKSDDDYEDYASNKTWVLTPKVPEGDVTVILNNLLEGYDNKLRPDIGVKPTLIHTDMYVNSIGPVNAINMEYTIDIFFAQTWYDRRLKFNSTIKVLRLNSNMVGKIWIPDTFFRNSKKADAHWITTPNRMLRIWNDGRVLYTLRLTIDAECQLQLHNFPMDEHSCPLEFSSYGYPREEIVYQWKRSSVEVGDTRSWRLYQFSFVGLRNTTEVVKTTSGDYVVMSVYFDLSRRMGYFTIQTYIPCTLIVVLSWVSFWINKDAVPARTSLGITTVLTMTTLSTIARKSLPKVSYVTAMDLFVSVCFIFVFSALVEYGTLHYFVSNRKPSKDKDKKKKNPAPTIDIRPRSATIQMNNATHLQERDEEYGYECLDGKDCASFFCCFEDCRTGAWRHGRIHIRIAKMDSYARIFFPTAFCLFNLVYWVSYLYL
Experiment: Membrane potential assay, CHO cell line expressing GABAA α5β3γ2s
Assay type: cell-based
experimental.readout: EC50 (nM)
Report only the number, with the unit nM understood.

Would you please look over these solved cases?
NCc1cc(=O)[nH]o1 [Muscimol]
80
C[C@]12CC[C@@H](O)C[C@@H]1CC[C@@H]1[C@@H]2CC[C@]2(C)C(=O)CC[C@@H]12 [Androsterone]
337

stdin: Return value of EC50 for input CC(=O)[C@H]1CC[C@H]2[C@@H]3CC[C@H]4C[C@H](O)CC[C@]4(C)[C@H]3CC[C@]12C [5-alpha-Pregnan-3alpha-ol-20-one] , no commentary.
stdout: 33.6

stdin: Return value of EC50 for input CN1C(=O)CCS(=O)(=O)C1c1ccc(Cl)cc1 (centres unmarked) [Chlormezanone] , no commentary.
stdout: 14.1

stdin: Return value of EC50 for input CC(C)c1cccc(C(C)C)c1O [Propofol] , no commentary.
stdout: 2000

----------
Target: GABAA receptor α5β3γ2s (α5) (Homo sapiens, UniProt P18507+P28472+P31644)
Construct: Human GABAA receptor alpha 5 subunit amino acid; Human GABAA receptor beta 3 variant 1 subunit amino acid; Human GABAA receptor gamma 2 variant 1 (short) subunit amino acid; expressed in transfected cells
Assay: Membrane potential assay, CHO cell line expressing GABAA α5β3γ2s
Assay type: cell-based
Conditions: membrane potential assay, CHO α5β3γ2s cell line; read-out: EC50 Values α5
experimental.readout: pEC50
pEC50 is defined as minus the log10 of a concentration measured in mol/L.

stdin: Return value of pEC50 for input O=S(=O)(O)C1CCNCC1 [Piperidine-4-sulphonic acid] , no commentary.
stdout: 4.85

stdin: Return value of pEC50 for input C[C@]12CC[C@@H](O)C[C@@H]1CC[C@@H]1[C@@H]2CC[C@]2(C)[C@@H](C(=O)CO)CC[C@@H]12 , no commentary.
stdout: 7.76

----------
Entries and their EC50 values follow.
Target: GABAA receptor α3β3γ2s (α3) (Homo sapiens, UniProt P18507+P28472+P34903)
Construct: Human GABAA receptor alpha 3 subunit amino acid; Human GABAA receptor beta 3 variant 1 subunit amino acid; Human GABAA receptor gamma 2 variant 1 (short) subunit amino acid; expressed in transfected cells
Sequence (P34903 29-492): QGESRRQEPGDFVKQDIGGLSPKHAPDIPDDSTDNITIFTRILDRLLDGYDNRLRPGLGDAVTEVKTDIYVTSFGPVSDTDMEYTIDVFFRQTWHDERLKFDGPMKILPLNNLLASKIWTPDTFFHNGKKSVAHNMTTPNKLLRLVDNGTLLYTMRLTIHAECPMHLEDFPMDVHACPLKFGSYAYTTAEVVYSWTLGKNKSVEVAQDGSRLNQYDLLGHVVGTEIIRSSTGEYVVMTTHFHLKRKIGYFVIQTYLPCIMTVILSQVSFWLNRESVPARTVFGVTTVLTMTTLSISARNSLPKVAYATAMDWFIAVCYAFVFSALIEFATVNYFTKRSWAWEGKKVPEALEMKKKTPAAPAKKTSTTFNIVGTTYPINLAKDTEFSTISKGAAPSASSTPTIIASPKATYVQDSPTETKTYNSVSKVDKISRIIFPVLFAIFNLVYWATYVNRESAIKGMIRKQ
Sequence (P28472 26-473): as the sequence (P28472 26-473) above
Sequence (P18507 40-467 isoform P18507-1 limits assumed): as the sequence (P18507 40-467 isoform P18507-1 limits assumed) above
Assay: Membrane potential assay, CHO cell line expressing GABAA α3β3γ2s
Format: cell-based
Conditions: membrane potential assay, CHO α3β3γ2s cell line; read-out: EC50 Values α3
Report only the number, with the unit µM understood.

Would you please look over these solved cases?
CCCCNc1c(C(=O)OCC)c(C)nc2c1cnn2CC [Tracazolate]
4.3
O=C(Nc1ccc([N+](=O)[O-])cc1Cl)c1cc(Cl)ccc1O [Niclosamide]
0.55

Here's the next entry for you.
stdin: Return value of EC50 for input CC(C)(C)c1cc(C=C(C#N)C#N)cc(C(C)(C)C)c1O , no commentary.
stdout: 5

----------
Entries and their pEC50 values follow.
Target: GABAA receptor α5β3γ2s (α5) (Homo sapiens, UniProt P18507+P28472+P31644)
Construct: Human GABAA receptor alpha 5 subunit amino acid; Human GABAA receptor beta 3 variant 1 subunit amino acid; Human GABAA receptor gamma 2 variant 1 (short) subunit amino acid; expressed in transfected cells
Assay: Membrane potential assay, CHO cell line expressing GABAA α5β3γ2s
Type: cell-based
Conditions: membrane potential assay, CHO α5β3γ2s cell line; read-out: EC50 Values α5
Counter-ions that a name gives are not always drawn.
pEC50 is defined as minus the log10 of a concentration measured in mol/L.

Would you please look over these solved cases?
O=C(O)C1=CCNCC1 [Isoguvacine hydrochloride]
5.95
OCCN(CCO)c1nc(N2CCCCC2)c2nc(N(CCO)CCO)nc(N3CCCCC3)c2n1
5.86

Here's the next entry for you.
stdin: Return value of pEC50 for input CC(C)(C)c1cc(C=C(C#N)C#N)cc(C(C)(C)C)c1O , no commentary.
stdout: 4.27
